Cited source: the supplement of paper PMC13380429

Below: a set of entries, each annotated with reported drug sensitivity score.
- Tested on: HepG2
- method.notes: drug sensitivity score (DSS) for viability; higher = more toxic; extreme values may be limits of the assay
- condition.context: 72 h
observation.type: drug sensitivity score

NS(=O)(=O)c1ccc2c(c1)C1C=CCC1C(c1ccc(Br)cc1)N2 (centres undefined) [4BP-TQS]
0.2
Nc1cc(C(F)(F)F)c(-c2nc(N3CCOCC3)nc(N3CCOCC3)n2)cn1 [PI3K-IN-2]
9.1
C=C1CCN([C@H](C)[C@](O)(Cn2cncn2)c2ccc(F)cc2F)CC1 [efinaconazole]
0
O=C1c2cc(Cl)ccc2OC2CCON12 (centres undefined) [seclazone]
0
CCc1nn(CCCN2CCN(c3cccc(Cl)c3)CC2)c(=O)n1CCOc1ccccc1 [nefazodone]
1.6
CCNCCS(=O)(=O)NC[C@@]1(c2ccccc2)SC(NC(=O)C(C)(C)C)=NN1C(=O)C(C)(C)C [litronesib]
23.3
COc1ccc(CNC(=O)c2cc(-c3cncc(C)c3)ncc2-c2nccs2)nc1OC [MK-3697]
0
CC(C)(C)Nc1nc(Nc2ccc(C(N)=O)cc2)cc(N)c1C#N [TC-Mps1-12]
8
CCCOC(=O)c1ccc(O)cc1 [propyl 4-hydroxybenzoate]
0
